# System: mouse vas deferens
# TEST DETAILS: Inhibition of electrically-evoked contractions of the mouse isolated vas deferens
# Assay type: cell-based
# CONDITION DETAILS: Mus musculus, Table 1
ENDPOINT: EC50 (nM)
Numeric answer only, unit nM assumed.

Query: Item C[C@H](CO)NC(=O)c1cccc(/C=C\CCCC(=O)N(C)C)c1 [VSN16R, reference compound] has what recorded EC50?
Response: 10.4
